molecular target: Estrogen receptor (Homo sapiens) (UniProt P03372); test: ATG_ERa_TRANS: Attagene TRANS-FACTORIAL HepG2 Assay for human Estrogen Receptor alpha (ERa) (AID 2282970); conditions: HepG2 Attagene TRANS ERa GAL4 reporter, mRNA
Sequence (P03372 whole entry, looked up, the tested form may be a part): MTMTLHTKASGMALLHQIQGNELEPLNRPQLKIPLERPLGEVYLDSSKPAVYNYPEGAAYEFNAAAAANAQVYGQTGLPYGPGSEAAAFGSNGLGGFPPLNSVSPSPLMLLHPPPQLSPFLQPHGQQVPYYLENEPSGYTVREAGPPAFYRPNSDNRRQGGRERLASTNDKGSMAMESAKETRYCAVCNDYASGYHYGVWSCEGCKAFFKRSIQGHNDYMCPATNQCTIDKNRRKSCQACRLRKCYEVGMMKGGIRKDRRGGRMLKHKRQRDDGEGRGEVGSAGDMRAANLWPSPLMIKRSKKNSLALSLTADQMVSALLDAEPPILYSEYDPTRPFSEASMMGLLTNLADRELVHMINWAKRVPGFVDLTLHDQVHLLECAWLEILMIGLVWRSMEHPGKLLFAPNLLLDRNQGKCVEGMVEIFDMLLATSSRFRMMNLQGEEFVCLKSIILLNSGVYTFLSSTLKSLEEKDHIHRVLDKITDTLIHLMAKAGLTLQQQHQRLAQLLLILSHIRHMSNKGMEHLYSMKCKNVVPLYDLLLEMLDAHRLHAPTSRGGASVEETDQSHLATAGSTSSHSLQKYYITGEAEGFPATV
Records with an inconclusive call do not appear. The source made the active and inactive calls. The calls were made as follows: active = hit-call score of the fitted dose curve at least 0.9, where 1 is the maximum; inconclusive = response in the unintended direction; inactive = score below 0.9.
I would appreciate it if you answered using one of these outcomes: active, inactive

Check the results log: what was the call for O=Nc1ccc(O)cc1 ?
active

Check the results log: what was the call for Cc1ccc([N+](=O)[O-])cc1S(=O)(=O)O ?
inactive

Check the results log: what was the call for OC1OCCOC1O (stereo not given) ?
inactive

Check the results log: what was the call for O=C(c1ccc(O)cc1)c1ccc(O)cc1O ?
active

Check the results log: what was the call for CCCCCc1ccc(Cl)cc1 ?
inactive

Check the results log: what was the call for CCCCCCCCCCCCCOP(=O)(O)O ?
inactive

Check the results log: what was the call for COc1ccc(-c2coc3cc(O)ccc3c2=O)cc1 ?
active

Check the results log: what was the call for COC(=O)c1ccc2cc(C(=O)OC)ccc2c1 ?
inactive

Check the results log: what was the call for CCCCC(CC)COCC1CO1 (stereo not given) ?
inactive

Check the results log: what was the call for Oc1ccc(Cl)cc1Cc1cc(Cl)ccc1O ?
inactive

Check the results log: what was the call for CCCCC(CC)CCC(CC(C)C)OS(=O)(=O)O (stereo not given) ?
inactive

Check the results log: what was the call for CC(C)COC(=O)C=Cc1ccccc1 ?
active

Check the results log: what was the call for CC(C)c1ccc2c(C(C)C)cc(C(C)C)c(S(=O)(=O)O)c2c1 ?
active

Check the results log: what was the call for CCCCCCCCCCCCCCCCCC#N ?
inactive

Check the results log: what was the call for N#CCc1ccc(Cl)cc1Cl ?
inactive

###

target: human Retinoic Acid Receptor gamma (RARg), RARG (gene 5916) (UniProt P13631); assay: ATG_RARg_TRANS: Attagene TRANS-FACTORIAL HepG2 Assay for human Retinoic Acid Receptor gamma (RARg) (AID 2283009)
Sequence (P13631 whole entry, looked up): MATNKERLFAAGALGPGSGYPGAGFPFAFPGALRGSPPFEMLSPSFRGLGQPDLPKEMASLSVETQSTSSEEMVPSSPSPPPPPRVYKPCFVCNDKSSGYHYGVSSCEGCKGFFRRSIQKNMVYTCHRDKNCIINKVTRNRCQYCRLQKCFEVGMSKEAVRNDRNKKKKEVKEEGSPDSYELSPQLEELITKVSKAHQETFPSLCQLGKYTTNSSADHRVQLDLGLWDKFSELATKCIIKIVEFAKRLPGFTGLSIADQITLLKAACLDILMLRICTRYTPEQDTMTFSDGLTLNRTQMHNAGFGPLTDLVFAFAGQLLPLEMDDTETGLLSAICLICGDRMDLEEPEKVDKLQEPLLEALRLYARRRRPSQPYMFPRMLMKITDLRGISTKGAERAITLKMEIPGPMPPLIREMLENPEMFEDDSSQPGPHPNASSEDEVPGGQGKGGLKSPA
Inconclusive results are not listed. Activity calls are given as the source filed them. The calls were made as follows: active = hit-call score of the fitted dose curve at least 0.9, where 1 is the maximum; inconclusive = response in the unintended direction; inactive = score below 0.9.
I would appreciate it if you answered using one of these outcomes: YES (active), NO (inactive)

Check the results log: what was the call for Cc1ccc2c(c1)C(=O)c1ccccc1C2=O ?
NO

Check the results log: what was the call for CC1=Nc2ccc3ccccc3c2C1(C)C ?
NO

Check the results log: what was the call for COC=O ?
NO

Check the results log: what was the call for O=C(Nc1ccccc1)c1ccccc1O ?
NO

Check the results log: what was the call for C=CCOc1c(Br)cc(Br)cc1Br ?
NO

Check the results log: what was the call for COc1ccc2nc(N)sc2c1 ?
NO

Check the results log: what was the call for O=S(=O)(O)c1cc(S(=O)(=O)O)c2ccc3c(S(=O)(=O)O)cc(S(=O)(=O)O)c4ccc1c2c43 ?
NO

Check the results log: what was the call for CCCCCCCCCCCCCCCC[n+]1ccccc1 ?
NO

Check the results log: what was the call for CCCCCCCCc1ccc(Nc2ccc(CCCCCCCC)cc2)cc1 ?
NO

Check the results log: what was the call for C=CC(=O)OCCOC(=O)C=C ?
NO

Check the results log: what was the call for c1cc(N(CC2CO2)CC2CO2)ccc1OCC1CO1 (stereo not given) ?
NO

Check the results log: what was the call for c1ccc2c(c1)ccc1cc3c(ccc4ccccc43)cc12 ?
NO

Check the results log: what was the call for CCCCCCCC(C)=O ?
NO

Check the results log: what was the call for O=c1cc[nH]c(=S)[nH]1 ?
NO

Check the results log: what was the call for CNC(=S)NN ?
NO

Check the results log: what was the call for CC(=O)Oc1ccc(C)cc1 ?
NO

Check the results log: what was the call for CCCCCCCOC(=O)CCC ?
NO

Check the results log: what was the call for COC(=O)c1sccc1S(N)(=O)=O ?
NO

Check the results log: what was the call for Cc1ccccc1C ?
NO

Check the results log: what was the call for Nc1ccc(N=Nc2ccccc2)c(N)n1 ?
NO

Check the results log: what was the call for C=C(C)[C@H]1CC=C(C)CC1 ?
NO

Check the results log: what was the call for C[Si](C)(CCCN)O[Si](C)(C)CCCN ?
NO

Check the results log: what was the call for ON(Cc1ccccc1)Cc1ccccc1 ?
NO

Check the results log: what was the call for O=C(O)CC(C(=O)O)C(CC(=O)O)C(=O)O (stereo not given) ?
NO

Check the results log: what was the call for Nc1ccc2cc3ccccc3cc2c1 ?
NO

Check the results log: what was the call for CCO[Si](CCCN=C=O)(OCC)OCC ?
NO

Check the results log: what was the call for O=C1CC2CC1C1CCCC21 (stereo not given) ?
NO

Check the results log: what was the call for CCOC(=O)Cc1cccc2ccccc12 ?
NO

Check the results log: what was the call for COc1ccc(C(Cl)=C(c2ccc(OC)cc2)c2ccc(OC)cc2)cc1 ?
NO

Check the results log: what was the call for C=CCOCC(O)CCl (stereo not given) ?
NO

Check the results log: what was the call for O=C1c2cccc(O)c2C(=O)c2c(O)cc(CO)cc21 ?
NO

Check the results log: what was the call for CCCCCCCCCCCCCCCC(=O)OCC ?
NO

Check the results log: what was the call for NCCCN1CCN(CCCN)CC1 ?
NO

Check the results log: what was the call for Clc1nc2ccccc2s1 ?
NO

Check the results log: what was the call for O=C(C(Cl)Cl)N1CCOC12CCCCC2 ?
NO

Check the results log: what was the call for CC(=O)OC(C)C ?
NO

Check the results log: what was the call for CCCNC(=O)NS(=O)(=O)c1ccc(Cl)cc1 ?
NO

Check the results log: what was the call for CCOC(=O)[C@H](C)O ?
NO

Check the results log: what was the call for S=C(NC1CCCCC1)NC1CCCCC1 ?
NO

Check the results log: what was the call for NC(=O)NNC(N)=O ?
NO

Check the results log: what was the call for C1=CCCC1 ?
NO

Check the results log: what was the call for Cc1cnc(NC(=O)C2=C(O)c3ccccc3S(=O)(=O)N2C)s1 ?
NO

Check the results log: what was the call for c1ccc2c(c1)ccc1ncccc12 ?
YES

Check the results log: what was the call for COc1ccc([C@@H]2CC(=O)c3c(O)cc(O[C@@H]4O[C@H](CO[C@@H]5O[C@@H](C)[C@H](O)[C@@H](O)[C@H]5O)[C@@H](O)[C@H](O)[C@H]4O)cc3O2)cc1OC ?
NO

Check the results log: what was the call for CCCCCCC(O)CO (stereo not given) ?
NO

Check the results log: what was the call for CCOc1nc(F)cc2nc(S(=O)(=O)Nc3c(Cl)cccc3C(=O)OC)nn12 ?
NO

Check the results log: what was the call for CC(=O)NS(=O)(=O)c1ccc(N)cc1 ?
NO

Check the results log: what was the call for NNC(=O)c1cccc(C(=O)NN)c1 ?
NO

Check the results log: what was the call for COC(=O)c1ccc2cc(C(=O)OC)ccc2c1 ?
NO

Check the results log: what was the call for C1=Cc2ccccc2C1 ?
NO

Check the results log: what was the call for O=C(O)Cc1c(Cl)ccc(Cl)c1Cl ?
NO

Check the results log: what was the call for C=C(C)C(=O)OCCO ?
NO

Check the results log: what was the call for CC(C)CC(O)Cc1ccccc1 (stereo not given) ?
NO

Check the results log: what was the call for O=CC1CC1 ?
NO

Check the results log: what was the call for C=C[Si](C)(C)O[Si](C)(C)C=C ?
NO

Check the results log: what was the call for CCCCCCOc1cc(C)c(O)c(C)c1C ?
NO

Check the results log: what was the call for C=C(C)c1cccc(C(C)(C)N=C=O)c1 ?
NO

Check the results log: what was the call for c1c[nH]cn1 ?
NO

Check the results log: what was the call for [Cl][In]([Cl])[Cl] ?
NO

Check the results log: what was the call for CCCCCCCC[N+](C)(CCCCCCCC)CCCCCCCC ?
NO
